Recorded Relative variation of the maximum absorbance of the charge transfer bands values for a group of molecules are listed next.
assay.remarks: Stability in organic medium (dimethyl sulfoxide) by UV-Vis spectroscopy
Format: physicochemical
measurement.parameters: time 0 h, band 357-425 nm (λmax in column head)
Answer with a number only, understood to be in %.

- molecule: "CC(=O)C1=C[CH]([Ru-]2([PH](c3ccccc3)(c3ccccc3)c3ccccc3)[n+]3ccccc3-c3cccc[n+]32)C=C1.O=S(=O)([O-])C(F)(F)F (centres unmarked) [compound 5]"
  display.unit: "%"
  recorded.number: 0.0

Asked: Tell me Relative variation of the maximum absorbance of the charge transfer bands reported for COc1cc[n+]2c(c1)-c1cc(O)cc[n+]1[Ru-]2([CH]1C=CC=C1)[PH](c1ccccc1)(c1ccccc1)c1ccccc1.O=S(=O)([O-])C(F)(F)F (centres unmarked) [compound 10]
Given back: 0.0

Asked: Tell me Relative variation of the maximum absorbance of the charge transfer bands reported for CC(=O)C1=C[CH]([Ru-]2([PH](c3ccccc3)(c3ccccc3)c3ccccc3)[n+]3cccc4c5nccnc5c5ccc[n+]2c5c43)C=C1.O=S(=O)([O-])C(F)(F)F (centres unmarked) [compound 7]
Given back: 0.0

Asked: Tell me Relative variation of the maximum absorbance of the charge transfer bands reported for CCC(=O)C1=C[CH]([Ru-]2([PH](c3ccccc3)(c3ccccc3)c3ccccc3)[n+]3ccccc3-c3cccc[n+]32)C=C1.O=S(=O)([O-])C(F)(F)F (centres unmarked) [compound 8]
Given back: 0.0

Asked: Tell me Relative variation of the maximum absorbance of the charge transfer bands reported for NNC(=O)C1=C[CH]([Ru-]2([PH](c3ccccc3)(c3ccccc3)c3ccccc3)[n+]3ccccc3-c3cccc[n+]32)C=C1.O=S(=O)([O-])C(F)(F)F (centres unmarked) [compound 4]
Given back: 0.0

Asked: Tell me Relative variation of the maximum absorbance of the charge transfer bands reported for O=C(Cc1ccccc1)C1=C[CH]([Ru-]2([PH](c3ccccc3)(c3ccccc3)c3ccccc3)[n+]3ccccc3-c3cccc[n+]32)C=C1.O=S(=O)([O-])C(F)(F)F (centres unmarked) [compound 9]
Given back: 0.0

Asked: Tell me Relative variation of the maximum absorbance of the charge transfer bands reported for CC(=O)C1=C[CH]([Ru-]2([PH](c3ccccc3)(c3ccccc3)c3ccccc3)[n+]3cccc4ccc5ccc[n+]2c5c43)C=C1.O=S(=O)([O-])C(F)(F)F (centres unmarked) [compound 6]
Given back: 0.0

Asked: Tell me Relative variation of the maximum absorbance of the charge transfer bands reported for CCOC(=O)Oc1cc[n+]2c(c1)-c1cc(OC)cc[n+]1[Ru-]2([CH]1C=CC=C1)[PH](c1ccccc1)(c1ccccc1)c1ccccc1.O=S(=O)([O-])C(F)(F)F (centres unmarked) [compound 11]
Given back: 0.0

###

assay.remarks: Stability in organic medium (dimethyl sulfoxide) by UV-Vis spectroscopy
Format: physicochemical
measurement.parameters: time 24 h, band 357-425 nm (λmax in column head)
experimental.endpoint: Relative variation of the maximum absorbance of the charge transfer bands (%)
Answer with a number only, understood to be in %.

Asked: Tell me Relative variation of the maximum absorbance of the charge transfer bands reported for COc1cc[n+]2c(c1)-c1cc(O)cc[n+]1[Ru-]2([CH]1C=CC=C1)[PH](c1ccccc1)(c1ccccc1)c1ccccc1.O=S(=O)([O-])C(F)(F)F (stereo not drawn) [compound 10]
Given back: 4.2

Asked: Tell me Relative variation of the maximum absorbance of the charge transfer bands reported for NNC(=O)C1=C[CH]([Ru-]2([PH](c3ccccc3)(c3ccccc3)c3ccccc3)[n+]3ccccc3-c3cccc[n+]32)C=C1.O=S(=O)([O-])C(F)(F)F (stereo not drawn) [compound 4]
Given back: 1.6

Asked: Tell me Relative variation of the maximum absorbance of the charge transfer bands reported for O=C(Cc1ccccc1)C1=C[CH]([Ru-]2([PH](c3ccccc3)(c3ccccc3)c3ccccc3)[n+]3ccccc3-c3cccc[n+]32)C=C1.O=S(=O)([O-])C(F)(F)F (stereo not drawn) [compound 9]
Given back: 0.8
